Reference for the values: patent US9073926B2

Entries with their measured pIC50, system Human RSK2 (Homo sapiens (Human), UniProt P51812):
pIC50: −log10 of the molar value.

[
  {
    "SMILES_REPRESENTATION": "CCn1c(NC(=O)c2ccc3cc4n(c3n2)[C@@H](C)CNC4=O)nc2ccccc21",
    "pIC50": 7.26
  },
  {
    "SMILES_REPRESENTATION": "C[C@H]1CNC(=O)c2cc3ccc(C(=O)Nc4nc5ccccc5n4CCCN(C)C)nc3n21",
    "pIC50": 6.58
  },
  {
    "SMILES_REPRESENTATION": "CC1(C)CNC(=O)c2cc3ccc(C(=O)Nc4cnn(Cc5ccccc5)c4)nc3n2C1",
    "pIC50": 7.92
  },
  {
    "SMILES_REPRESENTATION": "Cn1cc(NC(=O)c2ccc3cc4n(c3n2)CCCNC4=O)cn1",
    "pIC50": 8.32
  }
]

---

Target: Human RSK2 (Homo sapiens (Human), UniProt P51812)
Sequence (P51812 whole entry): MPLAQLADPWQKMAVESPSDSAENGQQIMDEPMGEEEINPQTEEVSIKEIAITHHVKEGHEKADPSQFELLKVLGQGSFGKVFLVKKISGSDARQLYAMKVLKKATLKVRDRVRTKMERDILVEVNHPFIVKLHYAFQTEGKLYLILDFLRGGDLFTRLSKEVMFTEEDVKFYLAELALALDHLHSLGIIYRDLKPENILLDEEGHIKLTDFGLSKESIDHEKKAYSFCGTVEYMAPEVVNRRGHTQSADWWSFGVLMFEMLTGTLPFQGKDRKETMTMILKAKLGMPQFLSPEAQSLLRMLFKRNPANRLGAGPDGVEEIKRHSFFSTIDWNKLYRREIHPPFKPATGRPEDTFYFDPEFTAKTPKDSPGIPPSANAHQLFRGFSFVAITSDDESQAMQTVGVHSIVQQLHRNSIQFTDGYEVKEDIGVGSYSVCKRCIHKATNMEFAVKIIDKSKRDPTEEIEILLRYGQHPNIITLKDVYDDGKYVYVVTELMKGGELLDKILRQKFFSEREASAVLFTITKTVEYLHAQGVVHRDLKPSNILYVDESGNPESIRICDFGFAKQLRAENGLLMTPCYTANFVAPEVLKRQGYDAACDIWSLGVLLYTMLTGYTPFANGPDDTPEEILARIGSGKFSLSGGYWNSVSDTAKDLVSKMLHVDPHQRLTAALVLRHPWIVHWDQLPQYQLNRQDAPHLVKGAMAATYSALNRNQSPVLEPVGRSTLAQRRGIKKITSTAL
pIC50: −log10 of the molar value.
Classification field: Met = pIC50 at or over 7; Not met = pIC50 under 7.

[
  {
    "COMPOUND": "C[C@@H]1CNC(=O)c2cc3ccc(C(=O)Nc4nc5ccccc5n4CCCN(C)C)nc3n21",
    "ASSAYED_TARGET": "Human RSK2 (Homo sapiens (Human), UniProt P51812)",
    "LABEL_CLASS": "Met"
  },
  {
    "COMPOUND": "Cn1cc(NC(=O)c2ccc3nc4n(c3c2)C(C)(C)CCNC4=O)cn1",
    "ASSAYED_TARGET": "Human RSK2 (Homo sapiens (Human), UniProt P51812)",
    "LABEL_CLASS": "Not met"
  },
  {
    "COMPOUND": "CC(C)n1ncc2cc(NC(=O)c3ccc4cc5n(c4n3)CCCNC5=O)cnc21",
    "ASSAYED_TARGET": "Human RSK2 (Homo sapiens (Human), UniProt P51812)",
    "LABEL_CLASS": "Met"
  },
  {
    "COMPOUND": "CC(C)n1ncc2cc(NC(=O)c3ccc4cc5n(c4n3)C(C)CCNC5=O)cnc21 (stereo not drawn)",
    "ASSAYED_TARGET": "Human RSK2 (Homo sapiens (Human), UniProt P51812)",
    "LABEL_CLASS": "Met"
  },
  {
    "COMPOUND": "O=C(Nc1cc(Cc2ccccc2)no1)c1ccc2cc3n(c2n1)CCCNC3=O",
    "ASSAYED_TARGET": "Human RSK2 (Homo sapiens (Human), UniProt P51812)",
    "LABEL_CLASS": "Met"
  },
  {
    "COMPOUND": "Cc1ccnc(NC(=O)c2ccc3nc4n(c3c2)CCCNC4=O)c1",
    "ASSAYED_TARGET": "Human RSK2 (Homo sapiens (Human), UniProt P51812)",
    "LABEL_CLASS": "Not met"
  },
  {
    "COMPOUND": "CC1CCNC(=O)c2cc3ccc(C(=O)Nc4cc(Cc5ccccc5)no4)nc3n21 (stereo not drawn)",
    "ASSAYED_TARGET": "Human RSK2 (Homo sapiens (Human), UniProt P51812)",
    "LABEL_CLASS": "Met"
  }
]
